SUBJECT_OF_TEST: human IGF1R (hIGF1R) (Homo sapiens, UniProt P08069)
Construct: containing amino acid residues 957-1367 of human IGF1R; made in house; host or cells: Sf9 cells (baculovirus)
Sequence (P08069 957-1367): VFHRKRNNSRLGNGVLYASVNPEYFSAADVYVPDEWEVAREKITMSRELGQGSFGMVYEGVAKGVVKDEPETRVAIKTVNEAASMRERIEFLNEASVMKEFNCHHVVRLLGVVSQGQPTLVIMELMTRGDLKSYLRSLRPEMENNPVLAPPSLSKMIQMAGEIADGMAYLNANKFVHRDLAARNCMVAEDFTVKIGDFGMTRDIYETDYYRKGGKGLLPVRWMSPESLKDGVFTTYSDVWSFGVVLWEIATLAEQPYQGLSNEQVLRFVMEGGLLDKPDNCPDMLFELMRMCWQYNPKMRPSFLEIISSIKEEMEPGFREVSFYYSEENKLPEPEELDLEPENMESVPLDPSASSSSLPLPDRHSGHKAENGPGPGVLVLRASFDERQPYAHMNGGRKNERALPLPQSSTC
ASSAY_OVERVIEW: TR-FRET kinase assay of purified hIGF1R
Format: biochemical
CONDITION_SUMMARY: activated hIGF1R 0.5 nM, 10 μM ATP, values given as pIC50 category, read-out: IGF-1R pIC50 (converted)
PROPERTY: IC50

Recorded results for 2 molecules are shown here.
• CNC(=O)c1ccccc1Nc1nc(Nc2ccc(C3CCCN(C)C3)cc2OC)nc2[nH]ccc12 (stereo not drawn) = 1.26 to 3.98 nM
• COc1cc(N2CCN(C(C)C)CC2)ccc1Nc1nc(Nc2cc(F)cc(F)c2C(N)=O)c2cc[nH]c2n1 = 0.251 to 1 nM

Okay, next one:
Input line: Read the entry CCN(CC)CC(=O)N1CCc2cc(OC)c(Nc3nc(Nc4cccc(F)c4C(=O)NC)c4cc[nH]c4n3)cc21 and write its reported IC50.
Output line: 5.01 to 200 nM

----------
SUBJECT_OF_TEST: human IR (hIR) (Homo sapiens)
Construct: containing amino acid residues 979-1382 of human IR
Sequence (P06213 979-1382): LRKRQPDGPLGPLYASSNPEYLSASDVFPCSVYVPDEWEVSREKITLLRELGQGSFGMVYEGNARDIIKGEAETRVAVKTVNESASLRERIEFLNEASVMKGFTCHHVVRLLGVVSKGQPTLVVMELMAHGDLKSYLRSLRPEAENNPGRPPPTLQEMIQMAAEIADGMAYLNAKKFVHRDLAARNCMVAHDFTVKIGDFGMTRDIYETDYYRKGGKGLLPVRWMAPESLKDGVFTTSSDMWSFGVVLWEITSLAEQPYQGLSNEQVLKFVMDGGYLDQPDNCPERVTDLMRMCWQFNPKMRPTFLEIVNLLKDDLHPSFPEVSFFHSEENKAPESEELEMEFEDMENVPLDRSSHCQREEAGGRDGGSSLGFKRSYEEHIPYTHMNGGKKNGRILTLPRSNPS
ASSAY_OVERVIEW: TR-FRET kinase assay of purified hIR
CONDITION_SUMMARY: activated hIR 0.5 nM, 10 μM ATP, values given as pIC50 category
Measured IC50 values are reported for all entries that follow.

Recorded results for 5 compounds are shown here.
• CCOc1cc2c(cc1Nc1nc(Nc3cccc(F)c3C(=O)NC)c3cc[nH]c3n1)N(C(=O)CN(C)C)CCC2 = 1.26 to 3.98 nM
• COc1cc2c(cc1Nc1nc(Nc3cc(F)cc(F)c3C(N)=O)c3cc[nH]c3n1)N(C(=O)CN(C)C)CC2 = 0.251 to 1 nM
• COc1cc(N2CCC(C3CCN(CCS(C)(=O)=O)CC3)CC2)ccc1Nc1nc(Nc2cccc(F)c2C(N)=O)c2cc[nH]c2n1 = 1.26 to 3.98 nM
• CNC(=O)c1c(F)cc(Cl)cc1Nc1nc(Nc2cc3c(cc2OC)CCCN3C(=O)CN2CCCC2)nc2[nH]ccc12 = 1.26 to 3.98 nM
• CN(C)CC(=O)Nc1ccc(OC(F)(F)F)c(Nc2nc(Nc3ccc(F)cc3C(N)=O)c3cc[nH]c3n2)c1 = 0.251 to 1 nM

Input line: Read the entry CNC(=O)c1c(F)cccc1Nc1nc(Nc2cc3c(cc2OC)CCN3C(=O)[C@@H]2CCCN2C)nc2[nH]ccc12 and write its reported IC50.
Output line: 5.01 to 158 nM

Input line: Read the entry CCCN1CCC(c2ccc(Nc3nc(Nc4cc(F)ccc4C(N)=O)c4cc[nH]c4n3)c(OC)c2)CC1 and write its reported IC50.
Output line: 0.251 to 1 nM

Input line: Read the entry COc1cc(N2CCC(N3CCCC(F)(F)C3)CC2)ccc1Nc1nc(Nc2cc(F)ccc2C(N)=O)c2cc[nH]c2n1 and write its reported IC50.
Output line: 0.251 to 1 nM

Input line: Read the entry COc1cc(N2CCC(N3CCOCC3)CC2)ccc1Nc1nc(Nc2ccc(F)cc2C(N)=O)c2cc[nH]c2n1 and write its reported IC50.
Output line: 0.251 to 1 nM

Input line: Read the entry COc1cc(N2CCOCC2)ccc1Nc1nc(Nc2ccccc2C(N)=O)c2cc[nH]c2n1 and write its reported IC50.
Output line: 0.251 to 1 nM

Input line: Read the entry COc1cc2c(cc1Nc1nc(Nc3cccc(F)c3C(N)=O)c3cc[nH]c3n1)N(C(=O)CN(C)C)[C@@H](C)C2 and write its reported IC50.
Output line: 0.251 to 1 nM

Input line: Read the entry CNC(=O)c1c(F)cccc1Nc1nc(Nc2cc3c(cc2OC)CCCN3C(=O)CCN(C)C)nc2[nH]ccc12 and write its reported IC50.
Output line: 5.01 to 158 nM

Input line: Read the entry CCCN1CCC=C(c2ccc(Nc3nc(Nc4ccc(C)cc4C(N)=O)c4cc[nH]c4n3)c(OC)c2)C1 and write its reported IC50.
Output line: 1.26 to 3.98 nM

Input line: Read the entry CCCN1CCC=C(c2ccc(Nc3nc(Nc4ccccc4C(N)=O)c4cc[nH]c4n3)c(OC)c2)C1 and write its reported IC50.
Output line: 0.251 to 1 nM

Input line: Read the entry COc1cc2c(cc1Nc1nc(Nc3cccc(F)c3C(N)=O)c3cc[nH]c3n1)N(C(=O)CN(C)C)[C@H](C)C2 and write its reported IC50.
Output line: 5.01 to 158 nM

Input line: Read the entry COc1cc2c(cc1Nc1nc(Nc3cccc(F)c3C(N)=O)c3cc[nH]c3n1)CN(CCF)CC2 and write its reported IC50.
Output line: 1.26 to 3.98 nM

Input line: Read the entry CCCN1CCC(c2ccc(Nc3nc(Nc4cc(F)cc(F)c4C(N)=O)c4cc[nH]c4n3)c(OC)c2)CC1 and write its reported IC50.
Output line: 0.251 to 1 nM

Input line: Read the entry COc1cc(N2CCCN(S(C)(=O)=O)CC2)ccc1Nc1nc(Nc2cccc(F)c2C(N)=O)c2cc[nH]c2n1 and write its reported IC50.
Output line: 5.01 to 158 nM

Input line: Read the entry COc1cc(N2CCOCC2)ccc1Nc1nc(Nc2cc(F)ccc2C(N)=O)c2cc[nH]c2n1 and write its reported IC50.
Output line: 1.26 to 3.98 nM
